SUBJECT_OF_TEST: CDK6/cyclin D1 (Homo sapiens) (UniProt P24385+Q00534)
ASSAY_INFO: Inhibition of human CDK6/cycD1 expressed in Sf9 cells at 100 uM; values are per cent of control
ENDPOINT_NAME: residual activity (%)

A selection of reference data follows.
>>> numeric_readout("COc1ccc(C2=C(c3c[nH]c4ccccc34)C(=O)NC2=O)cc1")
47
>>> numeric_readout("COc1cc(C2=C(c3cn(C)c4ccccc34)C(=O)NC2=O)cc(OC)c1OC")
11

[P] COc1cc2c3c(c4c5ccccc5n(C)c4c2c(OC)c1OC)C(=O)NC3=O
[Q] COc1cc(C2=C(c3c(C)[nH]c4ccccc34)C(=O)NC2=O)cc(OC)c1OC
[R] COc1cc(C2=C(c3c(-c4ccccc4)[nH]c4ccccc34)C(=O)NC2=O)cc(OC)c1OC
Ascending sort, residual activity. Write the labels, ordered according to the request.
P, Q, R

====

SUBJECT_OF_TEST: Protein kinase C epsilon type (Mus musculus)
ASSAY_INFO: Inhibition of mouse PKC epsilon expressed in Sf9 cells at 10 uM; values are per cent of control
ENDPOINT_NAME: residual activity (%)

>>> numeric_readout("COc1ccc(C2=C(c3ccccc3)C(=O)NC2=O)cc1")
127
>>> numeric_readout("COc1ccc(C2=C(c3cc(OC)c(OC)c(OC)c3)C(=O)NC2=O)cc1")
108
>>> numeric_readout("O=C1NC(=O)C(c2ccccc2)=C1c1ccccc1")
98
>>> numeric_readout("COc1ccc(C2=C(c3ccccc3)C(=O)NC2=O)cc1OC")
105

[P] COc1ccc(C2=C(c3ccc(OC)cc3)C(=O)NC2=O)cc1
[Q] COc1cc(C2=C(c3cn(C)c4ccccc34)C(=O)NC2=O)cc(OC)c1OC
Which numeric residual activity is bigger, that of P or that of Q ? Indicate which entry you chose by stating its label.
P

====

SUBJECT_OF_TEST: Protein kinase C alpha type (Mus musculus) (UniProt P20444)
ASSAY_INFO: Inhibition of mouse PKC alpha expressed in Sf9 cells at 10 uM; values are per cent of control
ENDPOINT_NAME: residual activity (%)

>>> numeric_readout("COc1ccc(C2=C(c3c[nH]c4ccccc34)C(=O)NC2=O)cc1OC")
65
>>> numeric_readout("O=C1NC(=O)C(c2ccccc2)=C1c1ccccc1")
82
>>> numeric_readout("COc1ccc2[nH]cc(C3=C(c4cc(OC)c(OC)c(OC)c4)C(=O)NC3=O)c2c1")
79
>>> numeric_readout("COc1cc(C2=C(c3c(C)[nH]c4ccccc34)C(=O)NC2=O)cc(OC)c1OC")
39
>>> numeric_readout("COc1cc(C2=C(c3c(-c4ccccc4)[nH]c4ccccc34)C(=O)NC2=O)cc(OC)c1OC")
97

[a] COc1cc2c3c(c4c5ccccc5n(C)c4c2c(OC)c1OC)C(=O)NC3=O
[b] COc1cc(C2=C(c3cn(C)c4ccccc34)C(=O)NC2=O)cc(OC)c1OC
[c] O=C1NC(=O)C(c2c[nH]c3ccccc23)=C1c1cccc2ccccc12
[d] COc1cc2c3c(c4c5ccccc5[nH]c4c2c(OC)c1OC)C(=O)NC3=O
Sort the 4 molecules by residual activity; largest first, smallest last. Write the labels, ordered according to the request.
a, d, b, c
(a: 83%, d: 54%, b: 28%, c: 7%)
